Sourced from the supplement of paper PMC9170038

The following sequences are listed with their measured apparent KD of K4 kissing-loop reporter values.
tested on: K4 kissing-loop RNA reporter; assay: apparent KD of K4 kissing-loop reporter; higher = weaker reporter binding; conditions: Eterna round: R107; input ligand: tryptophan 2.4 mM;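 also: bound reporter read as fluorescence of individual clusters on recovered sequencing chips by microscopy, with normalized cluster intensities fitted with a binding model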

Sequence Data	Unit Name	apparent KD of K4 kissing-loop reporter
UUAGUCUAGAGAAGGAGCGCAGUGAUGUUGCGAAUAAUAAUAAUAAUAAAUAAAUAAUCGAUGCAGGUAGGUCGCUCUAGACAUU [AK1 Exc Arginine B]	nM	213
GCCAGAGCGCGAAGGAGCGCCGUGACAGGUUACUGCCUUGGGCAGUGAUGUUGCUCAAUCUGGCAGGUAGGUCGCGUGCUCUGGC	nM	168
UGACUGGACUGAAGGAGCGGGCGAGACAAAGUCUCGAACUCCUAGUGAUGUUAGGAAAUAACCCAGGUAGGUCGCAGUCUAGUCU [ArgBS 7 #SwitchBubble #StaticStem #DoubleMagnet]	nM	137
GGGCGUGGCGCGGCCGCCACUGGGCCUGGGCGCUCGCUGAGUGAUGUUCGUCGGCGGCUGGGUCGUAGGACCGGGUGCUGGUUGG [BDazzled - #7 SS Tryptophan B]	nM	302
AAACAUCACUGGGAGUGAUGUUCUCAGUGACGAGGACCGGUACGGCCGCCACUCGCGAGAGAUAUAAUUAAGUAAUGACAUCAUU [Excl Tryptophan A V6]	nM	327
UUUAAAUAUAGUGAUGUUAUAUAACAAUGACGAGGACCGGUACGGCCGCCACUCGAGAGAGAUAAUGGUCAUACAAAUGUAUGUU [AstrosSSTryA#10]	nM	529
